Rule: true for log10 vapour pressure (mmHg) not less than -0.2, false for anything less.

{"columns": ["compound", "class.name"],
 "data": [
  ["CC(C)(C)C(C)(C)C", "true"],
  ["Cc1nnc(-c2ccccc2)c(=O)n1N", "false"],
  ["C=CC[Si](Cl)(Cl)Cl", "true"],
  ["CCCCCCC(=O)OCC", "true"],
  ["CCC(C#N)CC#N (stereo not given)", "false"]
]}

* * *

Label scheme for melting point: lower than 100 °C is rule not met, 100 °C and above is rule met.

{"columns": ["compound", "class.name"],
 "data": [
  ["COC(=O)CC#N", "rule not met"],
  ["CCC(C#N)CC#N (stereo unspecified)", "rule not met"],
  ["c1cc2c3c(c1)ccc1cccc(c13)C2", "rule met"],
  ["CC(=O)NCc1c(I)c(NC(C)=O)c(I)c(C(=O)O)c1I", "rule met"],
  ["CCOC(=O)C1(c2cccc(O)c2)CCN(C)CC1", "rule met"],
  ["C=CC", "rule not met"]
]}

* * *

Reported melting point values for a set of compounds

{"columns": ["compound", "unit.text", "melting point"],
 "data": [
  ["C#CCCC#C", "°C", -6],
  ["CCCC(O)C(CC)CO (stereo not given)", "°C", -40],
  ["CC(Br)Br", "°C", -63],
  ["CCOCCOCCOCC", "°C", -45],
  ["O=C(c1ccccc1)c1cccc([N+](=O)[O-])c1", "°C", 95],
  ["N#Cc1ccccc1-c1ccccc1", "°C", 41],
  ["CC(F)(F)CCl", "°C", -56.2],
  ["ClC(Cl)(Br)Br", "°C", 38],
  ["CCCCCCCCCCCCCCCCCCNC", "°C", 44],
  ["O=S(Cc1ccccc1)Cc1ccccc1", "°C", 134],
  ["NC(=O)Cc1cccc2ccccc12", "°C", 184],
  ["COc1cc(CNC(=O)CCCC/C=C/C(C)C)ccc1O", "°C", 65],
  ["O=C1OC(=O)c2c(Br)c(Br)c(Br)c(Br)c21", "°C", 275],
  ["CC(C)C(N)=O", "°C", 128],
  ["CCOC(=O)C(O)c1ccccc1 (stereo not given)", "°C", 35]
]}

* * *

# Lookup of reported log10 Koa keyed by entry

{"columns": ["smiles.text", "log10 Koa"],
 "data": [
  ["Clc1ccc2ccccc2c1Cl", 6.89],
  ["Clc1cc2c(c(Cl)c1Cl)Oc1c(Cl)c(Cl)c(Cl)c(Cl)c1O2", 11.4],
  ["CC[N+](=O)[O-]", 2.88],
  ["OC1CCCCC1", 5.18],
  ["Clc1cc(Cl)c2c(Cl)c(Cl)cc(Cl)c2c1Cl", 9.69],
  ["C1COCCO1", 3.18],
  ["CS(C)=O", 4.96]
]}

* * *

Reported boiling point values for the following molecules.

{"columns": ["molecule", "boiling point (°C)"],
 "data": [
  ["CN(C)c1ccccc1Cl", 205],
  ["C/C(Cl)=C/C(=O)O", 195],
  ["CN1C(C)(C)CCCC1(C)C", 147],
  ["c1ccc(C2CCc3ccccc3O2)cc1 (centres undefined)", 332],
  ["C=C1C=CC(C(C)C)CC1 (centres undefined)", 172],
  ["COC(=O)c1ccncc1", 208],
  ["CCC(Br)C(=O)Cl (centres undefined)", 151],
  ["Cc1ccc2c(c1)CC(C)CC2 (centres undefined)", 237],
  ["CCCCC(CC)CCl (centres undefined)", 172],
  ["CC(C)OC(N)=O", 183],
  ["C1CCCCCC1", 118],
  ["Clc1nc2ccccc2o1", 202],
  ["CN1CCC[C@H]1c1cccnc1", 247],
  ["CCSc1cccc(C)c1", 219],
  ["Clc1ccc2cccc(Cl)c2c1", 286],
  ["OCCC1CCCCC1", 208],
  ["C#CC(OC(=O)C1C(C=C(C)C)C1(C)C)/C(C)=C/CC (centres undefined)", 296],
  ["Cc1ccsc1Br", 176],
  ["CCCC(C)CCC", 118],
  ["CCCC(C)N (centres undefined)", 92],
  ["CCn1ccc2ccccc21", 252],
  ["COC(=O)C(C)C", 92.5],
  ["C=COCCCC", 94],
  ["Cc1nccs1", 128],
  ["COCC(=O)c1ccccc1", 245],
  ["Cc1cccc2ncccc12", 263],
  ["C=CCCCCCCCCC", 193],
  ["C[SiH](Cl)Cl", 41],
  ["O=C(O)COc1ccccc1", 285],
  ["CC1CCC(C)C1=O (centres undefined)", 146],
  ["C=CCOC(Cn1ccnc1)c1ccc(Cl)cc1Cl (centres undefined)", 347],
  ["CCCCCCCCCCCc1ccccc1", 316],
  ["CCCCCCCC1CCCCC1", 244],
  ["C=CC(O)C=C", 116],
  ["CCN", 16.6],
  ["CCCCCC=O", 131],
  ["OC1CC=CCC1 (centres undefined)", 164],
  ["CCN(CC)C(C)=O", 186],
  ["CC(C)Cl", 35.7],
  ["Cc1cc2ccoc2cc1C", 221],
  ["CC(C)(Br)Br", 115],
  ["FC(F)(F)C(F)(F)C(F)(F)C(F)(F)C(F)(F)C(F)(F)C(F)(F)C(F)(F)C(F)(F)Br", 159],
  ["Cc1cc(Br)ccc1Br", 236],
  ["CC1(C)CC=CC1", 88],
  ["CC(=O)C(=O)CC(C)C", 138],
  ["ClCCCCCCCCCCl", 260],
  ["Cc1csc(C)n1", 146],
  ["CCCCCCC(Br)CBr (centres undefined)", 241],
  ["CCC(C)CCC=C(C)C (centres undefined)", 163]
]}

* * *

Recorded boiling point by entry

{"columns": ["molecule", "boiling point / °C"],
 "data": [
  ["CC(=O)c1ccc(-c2ccccc2)cc1", 326],
  ["Cc1cc(Cl)nc2ccccc12", 296],
  ["CCC(CC(C)C)C(C)C (centres undefined)", 154],
  ["Brc1ccccc1I", 257]
]}

* * *

The following compounds are listed with their measured boiling point values.

{"columns": ["compound", "boiling point (°C)"],
 "data": [
  ["CC(O)COC(C)C (stereo unspecified)", 138],
  ["CC=CC(=O)CC", 138],
  ["CC(=O)OCc1ccco1", 179],
  ["CCCC1CCCC1", 131],
  ["Oc1cc(Br)cc(Br)c1", 274],
  ["Brc1ccccc1Br", 225],
  ["CCCCC(C)(C)CC", 137],
  ["CCCCCCCCCCCCO", 259],
  ["c1ccncc1", 115],
  ["Nc1ccc(Sc2ccc(N)cc2)cc1", 361],
  ["CCCCCCCF", 118],
  ["NCCCCCCN", 205],
  ["CCOC(OCC)C(Cl)(Cl)Cl", 197],
  ["CCCCc1cccc(O)c1", 248],
  ["NC1CC1", 50.5],
  ["O=Cc1cc(Cl)cc(Cl)c1", 240],
  ["Cc1ccc2cccc(O)c2n1", 267],
  ["CC1(C)CCc2ccccc21", 191],
  ["CCCCCC(C)(C)O", 156],
  ["O=c1c2ccccc2oc2ccccc12", 351],
  ["CC(CO)CC(F)(F)F (stereo unspecified)", 132],
  ["CCC1(O)CCCCC1", 166],
  ["N#CC(Cl)(Cl)Cl", 85.7],
  ["COC(=O)c1cccc(OC)c1", 248],
  ["COCC(C)C", 58.6],
  ["C=C(C)C1CC=C(C)C(O)C1 (stereo unspecified)", 228],
  ["C[Si](C)(Cl)Cl", 70.3],
  ["CCCCOC(=O)C(C)CC (stereo unspecified)", 179],
  ["CCCCC(C)CC(C)C (stereo unspecified)", 156],
  ["CCOC(=O)C(F)F", 100],
  ["C1=CC=CCCC=C1", 146],
  ["CCOC(CC)(OCC)OCC", 171],
  ["CC(C)C(O)(c1ccc(OC(F)(F)F)cc1)c1cncnc1 (stereo unspecified)", 264],
  ["COC(=O)CC(C)C", 116],
  ["C=CCC(=C)C", 56],
  ["Ic1cccc2ccccc12", 302],
  ["C=COc1ccccc1", 156],
  ["CC(C#N)c1ccccc1 (stereo unspecified)", 231],
  ["ClC1CC2CCC1C2 (stereo unspecified)", 162],
  ["C=CC(F)(F)Br", 42],
  ["CCC=CBr", 99],
  ["CC(C)COC(=O)OCC(C)C", 190],
  ["O=[N+]([O-])c1ccccc1Br", 258],
  ["CC(Cl)C(Cl)Cl (stereo unspecified)", 132],
  ["C=CC(=O)OCC(F)(F)C(F)F", 132],
  ["O=C(c1ccccc1)c1ccc(-c2ccccc2)cc1", 420]
]}

The reported measurements were obtained from the OPERA property sets (Mansouri et al. 2018).
